# Test system: MS2 coat protein
# Assay: apparent KD of MS2 coat protein; higher = weaker reporter binding
# Assay context: Eterna round: R107; input ligand: theophylline 2 mM
Reported property: apparent KD of MS2 coat protein
# include the unit after the value

Q: Provide measured apparent KD of MS2 coat protein value, entry: AUGCGGUGCGGAAGGAGCGAGUUUGCCUAUUACAUGAGGAUCACCCAUGUGGGUAAUGGGACUCAGGUAGGUCGCCGUUGUCGCA [Same State Arginine B GF 28]
Ans: 0.0651 µM

Q: Provide measured apparent KD of MS2 coat protein value, entry: UUAUAAGUACCGGUCCUCAGAUCCUCAUGACGAGGACCGGUACGGCCGCCACUCGAAACAUGAGGAUCACCCAUGUAAUAACAUC [Brourdmod21]
Ans: 0.0259 µM

Q: Provide measured apparent KD of MS2 coat protein value, entry: GGGCACAUGAGGAUCACCCAUGUCCAACGGCGAGGACCGGUACGGCCGCCACUCGGUAUAAGCUUCGAAAAGGAGGAUCCUGCAG [theeternabot_sameState_MS2_Trp_A_35]
Ans: 0.0477 µM

###

# System: K4 kissing-loop RNA reporter
# Assay: apparent KD of K4 kissing-loop reporter; higher = weaker reporter binding
# Assay context: Eterna round: R107; input ligand: tryptophan 2.4 mM
Give apparent KD of K4 kissing-loop reporter for every item shown.
Report only the number, with the unit nM understood.

Q: Lab note: record apparent KD of K4 kissing-loop reporter of UCGACAGUGAACGAUACCAGCGUCACGUGGCUGGUGGUCACAUGAGUGAUGUUCAUGUAACGCCCUUGGCAGCGUGCACGUAUCA [KL-XTheo-B8] tested on K4 kissing-loop RNA reporter.
Ans: 129

Q: Lab note: record apparent KD of K4 kissing-loop reporter of `AAAAUAAGCCAGUGAUGUUGGUACCCAGAUACCAGCGACGAAAGUCGCCCUUGGCAGCUGUGGACGUACAAAAUAAGUACGUCCU` tested on K4 kissing-loop RNA reporter.
Ans: 303

Q: Lab note: record apparent KD of K4 kissing-loop reporter of GUGGGCUCGGGAGGAUAUGAGUCUAGUGAUGUUAGGCGGUCCAUGCGCGUGGCGCGUUAUGCCCUUUUAGAAGGCCCGAGCCCUC [#2 Exclusion - FMN B Attempt #24 (HarryS)] tested on K4 kissing-loop RNA reporter.
Ans: 85.3

Q: Lab note: record apparent KD of K4 kissing-loop reporter of CCGACUGCAGGAAGGAGCGGCGGUUGGAGUGAUGUUCCGGGUAGUGAUGUUACCAAACUCCGCCAGGUAGGUCGCCUGUUGCUCG [Same State Arginine B GF10] tested on K4 kissing-loop RNA reporter.
Ans: 144

Q: Lab note: record apparent KD of K4 kissing-loop reporter of AAUAACUAGUAUUUUUUUAAUAAUACAGAUACCAGUGAUAAUAAACACCCUUGGCAGCUGAUCGAGUGAUGUUCGUUUAUUUUAA [JR_SSTheophyA_Sub003] tested on K4 kissing-loop RNA reporter.
Ans: 54

Q: Lab note: record apparent KD of K4 kissing-loop reporter of AGAGUUAAUUAGUCUUUUUUUACAUUAAGUCAGGAUAUCGUAUAUUCGAGAAGGGACACAUGCUAGUGAUGUUAGCUAUUUCUCA [JR_Nu_ExcFMNA_Sub019] tested on K4 kissing-loop RNA reporter.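 Further: bound reporter read as fluorescence of individual clusters on recovered sequencing chips by microscopy, with normalized cluster intensities fitted with a binding model.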
Ans: 44.4
